TEST_TARGET: HLA-B*27:05
ASSAY_REMARKS: IEDB peptide-MHC binding, purified MHC/competitive/fluorescence; filed as Kd, often an IC50 or EC50 that approximates it; bounds were set here for any values at or beyond the usual limits of such assays
APPLIED_CONDITIONS: source organism: Rickettsia akari str. Hartford
PARAMETER_MEASURED: Kd

> print(dat)
    seq.text  parameter.measured  assay.result
1  FTARIIIFS                  Kd        ≥ 5 µM

----------
Consider the following sequences and their measured Kd readings.
TEST_TARGET: HLA-A*03:01
ASSAY_REMARKS: IEDB peptide-MHC binding, purified MHC/competitive/radioactivity; filed as Kd, often an IC50 or EC50 that approximates it; bounds were set here for any values at or beyond the usual limits of such assays
APPLIED_CONDITIONS: source organism: Mammarenavirus guanaritoense
PARAMETER_MEASURED: Kd

> print(dat)
     seq.text  test.target  assay.result
1   ACRCGRFQK  HLA-A*03:01       3570 nM
2  IFFTTSLFLH  HLA-A*03:01       1030 nM

----------
TEST_TARGET: HLA-B*08:01
ASSAY_REMARKS: IEDB peptide-MHC binding, purified MHC/competitive/radioactivity; filed as Kd, often an IC50 or EC50 that approximates it; bounds were set here for any values at or beyond the usual limits of such assays
APPLIED_CONDITIONS: source organism: Dengue virus 3 Martinique/1243/1999
pKd: −log10 of the molar value.
// values below are reported pKd
PARAMETER_MEASURED: pKd

> print(dat)
     seq.text  assay.result
1  IKLTVVVGDI          5.98
2  IKRRLRTLIL          6.73

----------
TEST_TARGET: HLA-A*03:01
ASSAY_REMARKS: IEDB peptide-MHC binding, purified MHC/competitive/radioactivity; filed as Kd, often an IC50 or EC50 that approximates it; bounds were set here for any values at or beyond the usual limits of such assays
APPLIED_CONDITIONS: source organism: Vaccinia virus WR
pKd: −log10 of the molar value.
PARAMETER_MEASURED: pKd

> print(dat)
      seq.text  test.target  readout.relation  assay.result
 1  VIGLSGDSER  HLA-A*03:01                 ≤          4.20
 2   LSPAHLINK  HLA-A*03:01                 =          6.68
 3   GSWATSSFR  HLA-A*03:01                 =          6.95
 4  SSNKDPITVY  HLA-A*03:01                 ≤          4.15
 5  ASKTINALVY  HLA-A*03:01                 =          6.12
 6   VSLKKTNDK  HLA-A*03:01                 =          6.71
 7  MSTYSDICSK  HLA-A*03:01                 ≤          4.15
 8  FIDRGSIKIK  HLA-A*03:01                 =          6.31
 9  DADPPIPYSR  HLA-A*03:01                 ≤          4.15
10  DMFLTSVINR  HLA-A*03:01                 =          6.02
11  KTNDINVRRR  HLA-A*03:01                 =          7.19
12  QMDSMEALEY  HLA-A*03:01                 =          5.77
13   DVQRTRCKY  HLA-A*03:01                 ≤          4.27
14  DARYCSEFIR  HLA-A*03:01                 ≤          4.15
15  VAALDGTFQR  HLA-A*03:01                 ≤          4.47
16   LSLSNLDFR  HLA-A*03:01                 ≤          4.11
17   SMTIREFPR  HLA-A*03:01                 =          4.83
18   SSSIDVDKR  HLA-A*03:01                 ≤          4.11
19   KSPLPSLEY  HLA-A*03:01                 =          6.56
20   FTQHLLNIR  HLA-A*03:01                 ≤          4.11
21  KFLEFSNRVY  HLA-A*03:01                 ≤          4.40
22   DVDIYDAVR  HLA-A*03:01                 ≤          4.27
23  MFEQYFIYTY  HLA-A*03:01                 =          7.73
24   EIIFLKLFK  HLA-A*03:01                 =          7.79
25   KSISSMTIR  HLA-A*03:01                 =          5.89
26  NSQIFNIISY  HLA-A*03:01                 =          5.97
27   SSKGNCAIK  HLA-A*03:01                 =          5.17
28  AARILSEKRK  HLA-A*03:01                 =          5.10
29   LVVISVIFY  HLA-A*03:01                 ≤          4.61
30   KFGNSINVK  HLA-A*03:01                 =          5.15
31   STCSAVTDR  HLA-A*03:01                 ≤          4.51
32   PIINTHSFY  HLA-A*03:01                 ≤          4.11
33  SMLTNAISSR  HLA-A*03:01                 =          6.30
34   KQYDSTDFK  HLA-A*03:01                 =          7.21
35   EIKQGRVNK  HLA-A*03:01                 =          6.19
36   IQRFSSLRR  HLA-A*03:01                 =          6.90
37  VFTDISMSLY  HLA-A*03:01                 =          5.08
38  VSMTYLYNKY  HLA-A*03:01                 =          4.81
39   YITIQDRPR  HLA-A*03:01                 ≤          4.11
40  NTIDKSSPLY  HLA-A*03:01                 =          5.10
41  VVDTFISYNR  HLA-A*03:01                 =          5.60
42   MFLTSVINR  HLA-A*03:01                 =          6.45
43  NVTSMEELAR  HLA-A*03:01                 =          5.30
44  TFKIDAVRYY  HLA-A*03:01                 ≤          4.15

----------
TEST_TARGET: HLA-A*03:01
ASSAY_REMARKS: IEDB peptide-MHC binding, purified MHC/direct/fluorescence; filed as Kd, often an IC50 or EC50 that approximates it; bounds were set here for any values at or beyond the usual limits of such assays
APPLIED_CONDITIONS: source organism: Mycobacterium tuberculosis
pKd: −log10 of the molar value.
PARAMETER_MEASURED: pKd

> print(dat)
    seq.text  parameter.measured  assay.result
1  VPRENATAF                 pKd        ≤ 4.70

----------
TEST_TARGET: HLA-A*26:01
ASSAY_REMARKS: IEDB peptide-MHC binding, purified MHC/direct/fluorescence; filed as Kd, often an IC50 or EC50 that approximates it; bounds were set here for any values at or beyond the usual limits of such assays
APPLIED_CONDITIONS: source organism: Yersinia pestis CA88-4125
PARAMETER_MEASURED: Kd

> print(dat)
    seq.text  parameter.measured  assay.result
1  QQRPDLILV                  Kd       ≥ 20 µM
